- Test system: E. coli 1346
- experiment-summary: Antibacterial activity of the products per se, serial dilution method in liquid medium (Test E)
- Assay type: cell-based
- measurement-setup: Table 4; test E, product per se
Structures can show the parent of a compound that is named as a salt.
readout-label: MIC E. coli 1346 (E) (µg/mL)
Numbers only, in µg/mL.

// below: answered molecules
| molecule | unit-info | MIC E. coli 1346 (E) |
| --- | --- | --- |
| NC(=O)CSC1=C(C(=O)O)N2C(=O)[C@@H]3[C@H]2[C@H](C1)CN3C(=O)Nc1ccc(O)cc1 [3(p), sodium salt] | µg/mL | 32 |
| CC(=O)N1C[C@H]2CC(COC(=O)Nc3ccc(O)cc3)=C(C(=O)O)N3C(=O)[C@@H]1[C@@H]23 [90(a), sodium salt] | µg/mL | 0.5 |
| NC(=O)CNC(=O)Cn1nnnc1SCC1=C(C(=O)O)N2C(=O)[C@H]3NC[C@@H](O1)[C@H]32 | µg/mL | 8 |
| O=C(O)C1=C(CSc2nc(-c3cccnc3)cs2)C[C@@H]2CN(C(=O)C(F)(F)F)[C@@H]3C(=O)N1[C@H]23 [67(b), sodium salt] | µg/mL | 4 |
| Cc1nnc(SCC2=C(C(=O)O)N3C(=O)[C@H]4NC[C@@H](S2)[C@H]43)s1 | µg/mL | 8 |

// for each molecule below, give its MIC E. coli 1346 (E)
1. NC(=O)CSC1=C(C(=O)O)N2C(=O)[C@H]3NC[C@@H](C1)[C@H]32
2. [N-]=[N+]=NCC1=C(C(=O)O)N2C(=O)[C@H]3NC[C@@H](C1)[C@H]32
3. CC(=O)N1C[C@H]2CC(CSc3nnc(C)s3)=C(C(=O)O)N3C(=O)[C@@H]1[C@@H]23 [65(a), sodium salt]
4. N#CCC(=O)N1C[C@H]2CC(Sc3nnc(N)s3)=C(C(=O)O)N3C(=O)[C@@H]1[C@@H]23 [3(ag), sodium salt]

Return:
8
1
0.5
8

// for each molecule below, give its MIC E. coli 1346 (E)
1. COC(=O)CN1C[C@H]2CC(COC(N)=O)=C(C(=O)O)N3C(=O)[C@@H]1[C@@H]23 [59(b), sodium salt]
2. CC(=O)N1C[C@H]2OC(CSc3nnc(N)s3)=C(C(=O)O)N3C(=O)[C@@H]1[C@@H]23 [Example 33, sodium salt]
3. [N-]=[N+]=NCC1=C(C(=O)O)N2C(=O)[C@@H]3[C@H]2[C@H](C1)CN3C(=O)C(F)(F)F [83(b), sodium salt]

Return:
2
2
0.5

====

- System: E. coli 1346
- experiment-summary: Antibacterial activity of the products per se, serial dilution method in liquid medium (Test E)
- Type: cell-based
- measurement-setup: Table 4; test E, product per se
Counter-ions that a name gives are not always drawn.
readout-label: MIC E. coli 1346 (E)

// below: answered molecules
| molecule | MIC E. coli 1346 (E) |
| --- | --- |
| O=C(Nc1ccc(O)cc1)OCC1=C(C(=O)O)N2C(=O)[C@@H]3[C@H]2[C@H](C1)CN3C(=O)C(F)(F)F [90(b), sodium salt] | 0.5 µg/mL |
| Cn1nnnc1SCC1=C(C(=O)O)N2C(=O)[C@@H]3[C@H]2[C@@H](CN3C(=O)Nc2ccc(O)cc2)O1 [31(h), sodium salt] | 8 µg/mL |
| CC(=O)NCC1=C(C(=O)O)N2C(=O)[C@@H]3[C@H]2[C@H](C1)CN3C(=O)C(F)(F)F [Example 86, sodium salt] | 16 µg/mL |
| Cn1nnnc1SCC1=C(C(=O)O)N2C(=O)[C@@H]3[C@H]2[C@@H](CN3C(=O)CSc2nnc(N)s2)S1 [42(c), sodium salt] | 16 µg/mL |
| Cc1nnc(SCC(=O)N2C[C@H]3CC(COC(N)=O)=C(C(=O)O)N4C(=O)[C@@H]2[C@@H]34)s1 [Example 58(e), sodium salt] | 8 µg/mL |
| NC(=O)OCC1=C(C(=O)O)N2C(=O)[C@@H]3[C@H]2[C@H](C1)CN3C(=O)NCc1ccc(S(N)(=O)=O)cc1 [27(e), sodium salt] | 32 µg/mL |

// for each molecule below, give its MIC E. coli 1346 (E)
1. NC(=O)Cn1nnnc1SCC1=C(C(=O)O)N2C(=O)[C@@H]3[C@H]2[C@@H](CN3C=O)O1 [38(b), sodium salt]
2. C=CCOC(=O)N1C[C@H]2OC(CSc3nnnn3C)=C(C(=O)O)N3C(=O)[C@@H]1[C@@H]23 [29(e) Byproduct]
3. Cc1nnc(SCC2=C(C(=O)O)N3C(=O)[C@H]4NC[C@@H](O2)[C@H]43)s1 [Example 29(a), sodium salt]
4. N#C/C=C/C1=C(C(=O)O)N2C(=O)[C@H]3NC[C@@H](C1)[C@H]32

Return:
8 µg/mL
4 µg/mL
1 µg/mL
4 µg/mL

// for each molecule below, give its MIC E. coli 1346 (E)
1. N#C/C=C/C1=C(C(=O)O)N2C(=O)[C@@H]3[C@H]2[C@H](C1)CN3C(=O)Nc1ccc(O)cc1 [49(b), sodium salt]
2. O=C(O)C1=C(CSc2ccncc2)S[C@@H]2CN(C(=O)Nc3ccc(O)cc3)[C@@H]3C(=O)N1[C@@H]32 [41(b), sodium salt]
3. Cc1nnc(SCC2=C(C(=O)[O-])N3C(=O)[C@@H]4[C@H]3[C@H](C2)CN4C(=O)C[n+]2cccc(C(N)=O)c2)s1 [65(d), sodium salt]

Return:
4 µg/mL
> 32 µg/mL
16 µg/mL

Source listed as patent US5464617A.
